Exercise: state measured IC50 for each of the compounds provided.
Target: E. coli SPase (Escherichia coli, UniProt P00803)
Sequence (P00803 whole entry): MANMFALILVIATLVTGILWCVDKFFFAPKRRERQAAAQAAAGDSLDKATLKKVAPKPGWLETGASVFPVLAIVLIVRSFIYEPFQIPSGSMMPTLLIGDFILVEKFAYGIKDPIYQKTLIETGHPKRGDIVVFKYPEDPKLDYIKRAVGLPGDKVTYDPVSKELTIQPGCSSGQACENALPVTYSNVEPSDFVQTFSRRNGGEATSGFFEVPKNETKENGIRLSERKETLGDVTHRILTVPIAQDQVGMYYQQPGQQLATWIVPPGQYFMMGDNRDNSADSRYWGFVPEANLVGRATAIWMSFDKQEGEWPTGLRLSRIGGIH
Assay: Biochemical SPase activity assay (fluorogenic peptide substrate), E. coli enzyme
Square brackets hold non-standard residues; d marks the D form. Peptide text beside a SMILES is read from it. * marks the point of attachment. ξ: configuration not given here. boroAla((+)-pinanediol) = C[C@H](N*)B1O[C@@H]2C[C@@H]3C[C@@H](C3(C)C)[C@]2(C)O1; Biphenylcarbonyl(4'-Bu) = CCCCc1ccc(-c2ccc(C(=O)*)cc2)cc1; X1 = C[C@H](N*)B1OC2C[C@@H]3C[C@@H](C3(C)C)[C@]2(C)O1; Benzoyl(2,3-diOH) = O=C(c1cccc(O)c1O)*; X15 = CCCCCCN1CCC(c2ccc(C(=O)*)cc2)CC1; Myristoyl = CCCCCCCCCCCCCC(=O)*; Thr(3ξ) = CC(O)[C@H](N)C(=O)O; Lauroyl = CCCCCCCCCCCC(=O)*; boroAla = C[C@H](N*)B(O)O; Dab = NCC[C@H](N)C(=O)O; βAla = NCCC(=O)O
Numbers only, in µM.

Illustrative cases are given below, each with its answer.
CCCCc1ccc(-c2ccc(C(=O)N[C@@H](CCN)C(=O)N[C@@H](CCN)C(=O)N[C@@H](C)C(=O)N[C@@H](CCCCNC(=O)c3cccc(O)c3O)C(=O)N[C@@H](C)B3OC4C[C@@H]5C[C@@H](C5(C)C)[C@]4(C)O3)cc2)cc1 (stereo partly drawn) [Compound 190] ({Biphenylcarbonyl(4'-Bu)}-[Dab][Dab]AK(Benzoyl(2,3-diOH))-X1); 1.3
CCCCc1ccc(-c2ccc(C(=O)NCCC(=O)N[C@@H](CCCCN)C(=O)N3CCC[C@H]3C(=O)N[C@@H](C)C(=O)N[C@@H](CCCCN)C(=O)N[C@@H](C)B(O)O)cc2)cc1 [Compound 221] ({Biphenylcarbonyl(4'-Bu)-βAla}-KPAK-boroAla); 0.062
CCCCc1ccc(-c2ccc(CNCCCC(=O)N[C@H](C(=O)N[C@@H](C)C(=O)N[C@@H](CCCCN)C(=O)N[C@@H](C)B3O[C@@H]4C[C@@H]5C[C@@H](C5(C)C)[C@]4(C)O3)[C@@H](C)O)cc2)cc1 [Compound 271]; 0.2

// each listed compound needs a value for IC50
1. CCCCCCN1CCC(c2ccc(C(=O)N[C@@H](CCN)C(=O)N[C@H](C(=O)N[C@@H](C)C(=O)N[C@@H](CCCCN)C(=O)N[C@@H](C)B3O[C@@H]4C[C@@H]5C[C@@H](C5(C)C)[C@]4(C)O3)[C@@H](C)O)cc2)CC1 [Compound 246] (X15-[Dab]TAK-{boroAla((+)-pinanediol)})
2. CCCCCCCCCCCCCC(=O)N[C@@H](CC(C)C)C(=O)N[C@H](C(=O)N1CCC[C@@H]1C(=O)N[C@H](C(=O)N[C@@H](C)C(=O)N[C@@H](CC(N)=O)C(=O)NCC=O)C(C)O)C(C)O (stereo partly drawn) [Compound 103] (Myristoyl-L[Thr(3ξ)][dP][Thr(3ξ)]ANG-aldehyde)
3. CCCCCCCCCCCC(=O)N[C@@H](CCCCN)C(=O)N[C@H](C(=O)N[C@@H](C)C(=O)N[C@@H](CCCCN)C(=O)N[C@@H](C)B1OC2C[C@@H]3C[C@@H](C3(C)C)[C@]2(C)O1)[C@@H](C)O (stereo partly drawn) [Compound 141] (Lauroyl-KTAK-X1)

1. 0.055
2. 11
3. 0.033

# credit: patent US9708368B2
